procedure-summary: inhibitors of DENV2 cytopathic effect, primary screen, cell-based, plate reader, single concentration (AID 651640);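 also: 0% = median of neutral control wells and 100% = median of positive control wells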
run-conditions: DENV2-infected cells, cytopathic effect rescue, at 9.99 µM, hits give high values
Hit rate of the full screen: of about 350,000 compounds, about 6,000 (1.7%) were called active. About 5% were inconclusive and are not listed. The list comes from a sample in which actives are over-represented; it also holds close analogues and randomly drawn compounds.
metric-name: CPE inhibition (%)
Enter your answer as a number in %; do not include the unit.

## Input Using the record for Cc1cccc(-c2ccc([C@H]3[C@@H](CO)N4CCCCN(Cc5cncnc5)C[C@H]34)cc2)c1 , report its CPE inhibition.
## Output 5.45

## Input Queued: Cc1ccc(-c2ccc([C@H]3[C@H](CO)N4CCCCN(Cc5cncnc5)C[C@@H]34)cc2)cc1
## Output -2.12

## Input Queued: CO[C@@H]1CN(C)C(=O)c2ccc(NC(=O)C3CC3)cc2OC[C@H](C)N(C(C)=O)C[C@H]1C
## Output 7.67

## Input Queued: OC[C@@H]1[C@H](c2ccc(C#Cc3ccccc3)cc2)[C@@H]2CN(Cc3cncnc3)CCCCN12
## Output 4.64

## Input Queued: OC[C@H]1[C@H](c2ccc(-c3ccccc3F)cc2)[C@H]2CN(Cc3cncnc3)CCCCN21
## Output 45.6

## Input Queued: C[C@@H]1CCCCO[C@@H](CN(C)C(=O)Cc2ccccc2)[C@H](C)CN([C@H](C)CO)C(=O)c2cc(NC(=O)Cc3ccccc3)ccc2O1
## Output 13.3

## Input Queued: OC[C@@H]1[C@H](c2ccc(C3=CCCC3)cc2)[C@H]2CN(Cc3ccncc3)CCCCN12
## Output 41

## Input Queued: CC(C)CC#Cc1cnc2c(c1)C(=O)N([C@@H](C)CO)C[C@H](C)[C@@H](CN(C)C(=O)c1ccc(F)cc1)O2
## Output -4.54

====

procedure-summary: inhibitors of DENV2 cytopathic effect, primary screen, cell-based, plate reader, single concentration (AID 651640);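 also: 0% = median of neutral control wells and 100% = median of positive control wells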
run-conditions: DENV2-infected cells, cytopathic effect rescue, at 9.99 µM, hits give high values
About 6,000 (1.7%) of roughly 350,000 compounds were called active. About 5% were inconclusive and are not listed. Only a selection was taken, and actives are over-represented in it overall.
metric-name: CPE inhibition (%)
Enter your answer as a number in %; do not include the unit.

## Input Using the record for CC(C)(C)NC(=O)C(CCc1ccccc1)n1c(=O)c(-c2ccccc2)nc2ccccc21 (stereo not drawn) , report its CPE inhibition.
## Output 8.63

## Input Queued: O=C(c1cccnc1)N(c1cc2sc(=O)oc2c2ccccc12)S(=O)(=O)c1ccccc1
## Output -6.54

## Input Queued: C[C@@H]1CCCCO[C@H](CN(C)S(=O)(=O)c2cn(C)cn2)[C@@H](C)CN([C@@H](C)CO)C(=O)c2cc(NC(=O)c3ccncc3)ccc2O1
## Output 1.9

## Input Queued: COc1ccc(N(CC(=O)N/N=C/c2cccs2)S(=O)(=O)c2ccc(OC)c(OC)c2)cc1
## Output 6.81

## Input Queued: CO[C@H]1CN(C)C(=O)c2ccc(NC(=O)c3nc4ccccc4s3)cc2OC[C@@H](C)N(Cc2cncnc2)C[C@H]1C
## Output -2.74

## Input Queued: CO[C@H]1CN(C)C(=O)c2cc(NC(=O)c3cnccn3)ccc2OC[C@H](C)N(C(=O)C2CC2)C[C@H]1C
## Output 7.36

## Input Queued: CO[C@@H]1CN(C)C(=O)c2cc(NC(=O)c3cnccn3)ccc2OC[C@@H](C)N(CC2CC2)C[C@H]1C
## Output -5.97

## Input Queued: CO[C@H]1CN(C)C(=O)c2cc(NC(=O)c3cnccn3)ccc2OC[C@@H](C)N(CC2CC2)C[C@@H]1C
## Output 26.7

====

procedure-summary: inhibitors of DENV2 cytopathic effect, primary screen, cell-based, plate reader, single concentration (AID 651640);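 also: 0% = median of neutral control wells and 100% = median of positive control wells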
run-conditions: DENV2-infected cells, cytopathic effect rescue, at 9.99 µM, hits give high values
Screen size: about 350,000 compounds; about 6,000 (1.7%) were called active. About 5% were inconclusive and are not listed. The entries come from a sample that favours actives as a whole.
metric-name: CPE inhibition (%)
Enter your answer as a number in %; do not include the unit.

## Input Using the record for C[C@H](CO)N1C[C@H](C)[C@H](CN(C)C(=O)Nc2ccc(F)cc2)Oc2c(NC(=O)c3cnccn3)cccc2C1=O , report its CPE inhibition.
## Output 29.3

## Input Queued: CC(C)(C)[S@@](=O)N1Cc2cc(C(=O)N3CCOCC3)nc(-c3cccc(-c4ccc(C#N)cc4)c3)c2[C@H]1CCO
## Output -2.86

## Input Queued: C[C@H]1CN([C@@H](C)CO)C(=O)c2cccc(NC(=O)c3cnccn3)c2O[C@@H]1CN(C)Cc1ccc(Oc2ccccc2)cc1
## Output 2.15

## Input Queued: CC(C)NC(=O)N(C)C[C@@H]1Oc2c(NC(=O)c3cnccn3)cccc2C(=O)N([C@@H](C)CO)C[C@@H]1C
## Output -11.9

## Input Queued: C[C@@H]1CN([C@@H](C)CO)C(=O)c2cccc(NC(=O)Nc3ccc(F)cc3)c2O[C@H]1CN(C)C(=O)Nc1ccc(F)cc1
## Output 14.7

## Input Queued: C[C@H]1CN([C@@H](C)CO)C(=O)c2cccc(NC(=O)c3cnccn3)c2O[C@H]1CN(C)C(=O)Nc1ccccc1
## Output 28.3

## Input Queued: CCCNC(=O)c1cc2c(c(-c3cccc(-c4ccc(C#N)cc4)c3)n1)[C@@H](CCO)N(C(=O)CC)C2
## Output 4.99

====

procedure-summary: inhibitors of DENV2 cytopathic effect, primary screen, cell-based, plate reader, single concentration (AID 651640);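 also: 0% = median of neutral control wells and 100% = median of positive control wells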
run-conditions: DENV2-infected cells, cytopathic effect rescue, at 9.99 µM, hits give high values
Among all 350,000 compounds or so, about 6,000 (1.7%) were called active. Another 5% or so got no clear call; they are omitted. For the sample, actives were picked, then their nearest neighbours and some compounds at random.
metric-name: CPE inhibition

## Input Using the record for O=S(=O)(c1ccc(F)cc1)N1CCCCN2[C@H](CO)[C@@H](c3ccc(C#CC4CCCC4)cc3)[C@H]2C1 , report its CPE inhibition.
## Output -3.13% (inactive)

## Input Queued: O=C(C[C@H]1C[C@@H]2c3cc(NC(=O)CC4CC4)ccc3O[C@@H]2[C@@H](CO)O1)NCc1cc(F)ccc1F
## Output -1.05% (inactive)

## Input Queued: C[C@@H]1CN([C@@H](C)CO)C(=O)c2cc(NC(=O)CCCN(C)C)ccc2O[C@@H](C)CCCCO[C@@H]1CN(C)S(=O)(=O)c1ccc(Cl)cc1
## Output -4.63% (inactive)

## Input Queued: Cc1ccc(CN2CCCOCCS2(=O)=O)cc1
## Output 40.2% (active)

## Input Queued: C[C@H](CO)N1C[C@H](C)[C@H](CN(C)Cc2ccncc2)Oc2ncc(C#Cc3cccc(F)c3)cc2C1=O
## Output 13.5% (inactive)

## Input Queued: C[C@@H]1CN([C@H](C)CO)C(=O)c2cc(NC(=O)NC3CCCCC3)ccc2O[C@H]1CN(C)C(=O)Nc1ccccc1
## Output 1% (inactive)

## Input Queued: COc1cccc(S(=O)(=O)N[C@H]2C=C[C@@H](CC(=O)NCc3ccc(F)cc3)O[C@@H]2CO)c1
## Output 3.36% (inactive)

## Input Queued: CCOC(=O)[C@H]1[C@H]2COc3ccc(C)cc3[C@@H]2N2C(=O)CN(Cc3ccc(F)cc3)C(=O)[C@@]12C
## Output -7.57% (inactive)

====

procedure-summary: inhibitors of DENV2 cytopathic effect, primary screen, cell-based, plate reader, single concentration (AID 651640);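 also: 0% = median of neutral control wells and 100% = median of positive control wells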
run-conditions: DENV2-infected cells, cytopathic effect rescue, at 9.99 µM
The campaign covered roughly 350,000 compounds. About 6,000 (1.7%) were called active. Inconclusive results (about 5%) are left out. Cut-off read from the data, not from the text of the source: active = CPE inhibition above about 20% (passing the limit was not always enough); inconclusive = no clear call, values can overlap the other calls; tested in BHK-21 cells. This is one part of a sample in which actives are shown more often than they occur.
Use one of these outcomes when replying: 1 (active), -1 (inactive)

## Input Returns: the outcome recorded for CC(C)NC(=O)N(C)C[C@H]1Oc2ccc(NS(C)(=O)=O)cc2CC(=O)N([C@@H](C)CO)C[C@H]1C in this assay.
## Output -1

## Input Queued: CCCCCCn1c(=O)n2n(c1=O)C[C@]1(OC(=O)NCc3ccc(OC)c(OC)c3)CN(S(=O)(=O)c3ccc(C)cc3)C[C@]1(O)C2
## Output 1

## Input Queued: C[C@H]1CCCCO[C@@H](CN(C)Cc2ccc3c(c2)OCO3)[C@@H](C)CN([C@@H](C)CO)C(=O)c2cc(NC(=O)c3ccccc3)ccc2O1
## Output -1

## Input Queued: C[C@H](O)C#Cc1ccc2c(c1)O[C@H](CN(C)Cc1cccnc1)[C@H](C)CN([C@H](C)CO)S2(=O)=O
## Output -1

## Input Queued: Nc1nc(SCC(=O)Nc2cc(C(F)(F)F)ccc2Cl)[nH]c(=O)c1NC(=O)c1ccco1
## Output -1

## Input Queued: CCN1[C@@H]2Cn3c(ccc(-c4cccc(OC)c4)c3=O)[C@H]1[C@@H](C(=O)N(C)C)[C@@H]2CO
## Output -1

## Input Queued: C[C@@H]1CN([C@@H](C)CO)C(=O)Cc2cc(NS(C)(=O)=O)ccc2O[C@H]1CN(C)C(=O)Nc1ccccc1
## Output -1

## Input Queued: COc1cccc(S(=O)(=O)N2CC3(CCN(C)CC3)c3c(n(C)c4cc(OC)ccc34)[C@H]2CO)c1
## Output -1
